Entry source: ChEMBL document CHEMBL3751787

measured.target: Tyrosine-protein phosphatase non-receptor type 1 (Homo sapiens, UniProt P18031)
Sequence (P18031 whole entry): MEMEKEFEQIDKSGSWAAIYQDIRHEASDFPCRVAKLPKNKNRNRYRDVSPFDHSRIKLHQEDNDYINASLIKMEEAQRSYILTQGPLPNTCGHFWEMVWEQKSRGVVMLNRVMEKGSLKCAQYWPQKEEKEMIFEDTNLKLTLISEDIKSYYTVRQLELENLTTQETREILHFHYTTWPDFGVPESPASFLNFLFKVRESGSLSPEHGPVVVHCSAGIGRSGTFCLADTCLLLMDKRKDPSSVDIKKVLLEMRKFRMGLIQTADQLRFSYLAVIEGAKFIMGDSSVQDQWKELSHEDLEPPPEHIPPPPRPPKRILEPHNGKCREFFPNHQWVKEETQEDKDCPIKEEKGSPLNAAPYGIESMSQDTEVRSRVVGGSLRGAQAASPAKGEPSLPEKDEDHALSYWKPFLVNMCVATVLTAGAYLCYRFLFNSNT
protocol: Inhibition of human recombinant PTP1B using p-nitrophenyl phosphate as substrate by spectrophotometric analysis
So I've got a bunch of molecules here, and I need their IC50 values.

Fill in: IC50 of COc1ccc(CCC(=O)C2=C(O)C(CC=C(C)C)=C3OC(C)(C)C=CC3(CC=C(C)C)C2=O)cc1O (centres undefined) is ___
29.4 µM

Then what about the molecule CC(C)=CCc1c2c(c3occ(-c4ccc(O)cc4)c(=O)c3c1O)C=CC(C)(C)O2 [OSAJIN] ?
23.6 µM

Moving on to the next molecule: `CC(C)=CCc1c(O)c(CC=C(C)C)c2occ(-c3ccc(O)c(O)c3)c(=O)c2c1O`
2.4 µM

Lookup COc1ccc(CC/C(O)=C2\C(=O)C(CC=C(C)C)=C3OC(C)(C)C=CC3(CC=C(C)C)C2=O)cc1O (centres undefined)
20.2 µM

----------
Please provide measured pKi for the entries that follow.
measured.target: UniProtKB P18031
protocol: Non-competitive inhibition of human recombinant PTP1B using p-nitrophenyl phosphate as substrate by spectrophotometry based Lineweaver-Burk plot
# pKi = -log10(concentration in molar units)

Endpoint output: pKi of `CC(C)=CCc1c(O)c(CC=C(C)C)c2occ(-c3ccc(O)c(O)c3)c(=O)c2c1O` . Value?
5.60

Likewise for `CC(C)=CCc1c2c(c(O)c3c(=O)c(-c4ccc(O)c(O)c4)coc13)C=CC(C)(C)O2` ?
5.36

Let us now turn to `CC(C)=CCc1c(O)c(CC=C(C)C)c2occ(-c3ccc(O)cc3)c(=O)c2c1O`
5.02

Repeat for the following molecule: `COc1cc(-c2coc3c(CC=C(C)C)c(O)c(CC=C(C)C)c(O)c3c2=O)ccc1O`
4.72

And for `CC(C)=CCc1c2c(c3occ(-c4ccc(O)cc4)c(=O)c3c1O)C=CC(C)(C)O2` ?
4.52
